Molecular target: PPARγ (Homo sapiens)
Construct: expressed in transfected cells; host or cells: CHO-K1
Sequence (P37231 29-505): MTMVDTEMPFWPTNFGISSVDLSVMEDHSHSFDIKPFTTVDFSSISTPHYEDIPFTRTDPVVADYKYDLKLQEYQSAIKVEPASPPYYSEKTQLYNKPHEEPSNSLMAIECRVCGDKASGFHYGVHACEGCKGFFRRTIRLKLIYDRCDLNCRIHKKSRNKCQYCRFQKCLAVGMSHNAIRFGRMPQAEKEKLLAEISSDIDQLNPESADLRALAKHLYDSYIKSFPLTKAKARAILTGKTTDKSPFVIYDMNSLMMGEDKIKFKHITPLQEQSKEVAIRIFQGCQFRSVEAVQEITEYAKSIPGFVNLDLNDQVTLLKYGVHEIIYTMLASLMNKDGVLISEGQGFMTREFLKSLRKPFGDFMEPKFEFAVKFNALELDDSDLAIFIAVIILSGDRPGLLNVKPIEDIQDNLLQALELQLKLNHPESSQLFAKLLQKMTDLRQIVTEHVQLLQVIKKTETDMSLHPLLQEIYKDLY
Sequence (P19793 whole entry partner): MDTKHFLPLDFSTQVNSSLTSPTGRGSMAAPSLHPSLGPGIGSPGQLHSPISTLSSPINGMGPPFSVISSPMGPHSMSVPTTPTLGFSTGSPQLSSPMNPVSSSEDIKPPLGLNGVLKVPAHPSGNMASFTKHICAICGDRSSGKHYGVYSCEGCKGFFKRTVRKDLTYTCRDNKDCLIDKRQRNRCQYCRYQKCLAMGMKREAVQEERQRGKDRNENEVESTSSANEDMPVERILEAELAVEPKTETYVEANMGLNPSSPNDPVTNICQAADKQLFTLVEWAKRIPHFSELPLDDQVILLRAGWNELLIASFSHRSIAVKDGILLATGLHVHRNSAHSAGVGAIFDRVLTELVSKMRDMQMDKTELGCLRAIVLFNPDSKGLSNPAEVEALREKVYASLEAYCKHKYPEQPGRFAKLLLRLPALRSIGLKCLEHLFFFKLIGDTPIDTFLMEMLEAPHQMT
Assay: Evaluation of PPARγ activating action (luciferase reporter in PPARγ:RXRα:4ERPP/CHO-K1 cells)
Type: cell-based
Settings: CHO-K1, 24 h; test compound 10^−6 M; luciferase activity relative to control compound X (1 μM) = 100%, non-administration group = 0%; read-out: PPARγ activating action (activation % (10^−6 M))
READOUT KIND: activation at 1 µM (%)

# MOLECULE, TARGET OF ASSAY, READOUT KIND, OBSERVED RESULT
data = [
    ("CCCCc1nc(C)n(-c2cccc(C(C)(C)O)c2)c(=O)c1Cc1ccc(-c2ccccc2-c2noc(=O)[nH]2)cc1", "PPARγ (Homo sapiens)", "activation at 1 µM", 26.8),
    ("CCCc1nc(CC)n(-c2ccc(OC(C)(C)C(C)O)cc2)c(=O)c1Cc1ccc(-c2ccccc2-c2noc(=O)[nH]2)cc1 (centres unmarked)", "PPARγ (Homo sapiens)", "activation at 1 µM", 55.4),
    ("CCCc1nc(CC)n(-c2ccc(OC3CCOCC3)cc2)c(=O)c1Cc1ccc(-c2ccccc2-c2noc(=O)[nH]2)cc1", "PPARγ (Homo sapiens)", "activation at 1 µM", 46.9),
    ("CCOc1nc(C)c(Cc2ccccc2)c(=O)n1Cc1ccc(-c2ccccc2-c2noc(=O)[nH]2)cc1", "PPARγ (Homo sapiens)", "activation at 1 µM", 35.8),
    ("CCCOc1ccc(-c2c(CC)nc(CCC)n(Cc3ccc(-c4ccccc4-c4noc(=O)[nH]4)cc3)c2=O)cc1", "PPARγ (Homo sapiens)", "activation at 1 µM", 40),
    ("CCCc1nc(C)n(-c2ccc(OC(C)C)cc2)c(=O)c1Cc1ccc(-c2ccccc2-c2noc(=O)[nH]2)c(F)c1", "PPARγ (Homo sapiens)", "activation at 1 µM", 25.3),
    ("CCCc1nc(CC)n(-c2ccc(OC(C)(C)COC)cc2)c(=O)c1Cc1ccc(-c2ccccc2-c2noc(=O)[nH]2)cc1", "PPARγ (Homo sapiens)", "activation at 1 µM", 22),
    ("CCCc1nc(CC)c(-c2ccc(OC(C)C)c(F)c2)c(=O)n1Cc1ccc(-c2ccccc2-c2noc(=O)[nH]2)cc1", "PPARγ (Homo sapiens)", "activation at 1 µM", 30),
    ("CCCc1nc(CC)c(-c2ccc(OCC3CC3)nc2)c(=O)n1Cc1ccc(-c2ccccc2-c2noc(=O)[nH]2)cc1", "PPARγ (Homo sapiens)", "activation at 1 µM", 35.9),
    ("CCCc1nc(C)n(-c2ccc(OC(C)C#N)cc2)c(=O)c1Cc1ccc(-c2ccccc2-c2noc(=O)[nH]2)cc1 (centres unmarked)", "PPARγ (Homo sapiens)", "activation at 1 µM", 22.6),
]

[A] CCCc1nc(C)n(-c2cc(F)c3c(c2)CC(C)(C)O3)c(=O)c1Cc1ccc(-c2ccccc2-c2noc(=O)[nH]2)cc1
[B] CCCc1nc(CC)n(-c2ccc(OC3CCOCC3)nc2)c(=O)c1Cc1ccc(-c2ccccc2-c2noc(=O)[nH]2)cc1
query: // compare: A vs B , metric activation at 1 µM, want the smaller Record your answer as the label of the chosen record.
result: A
(A: 17%, B: 41.9%)
